# procedure.details: binders from COS7 lysate, DM2A8 probe, primary screen, torsin A project, cell lysate, small-molecule microarray, fluorescence 635/667 (AID 1065)
# measurement.context: higher = more signal, COS7 lysate expressing mutant human TOR1A
reported.metric: composite z-score
Just the number, please, no unit after it.

Recorded composite z-score for CC(c1ccccc1)C(O)C1C=CC2C(=O)NC(=O)C2N1Nc1ccccn1 (stereo not drawn) , please?
-0.0988

====

# measured.target: Neurogenic locus notch homolog protein 2 (Homo sapiens) (UniProt Q04721)
# Sequence (Q04721 whole entry, looked up): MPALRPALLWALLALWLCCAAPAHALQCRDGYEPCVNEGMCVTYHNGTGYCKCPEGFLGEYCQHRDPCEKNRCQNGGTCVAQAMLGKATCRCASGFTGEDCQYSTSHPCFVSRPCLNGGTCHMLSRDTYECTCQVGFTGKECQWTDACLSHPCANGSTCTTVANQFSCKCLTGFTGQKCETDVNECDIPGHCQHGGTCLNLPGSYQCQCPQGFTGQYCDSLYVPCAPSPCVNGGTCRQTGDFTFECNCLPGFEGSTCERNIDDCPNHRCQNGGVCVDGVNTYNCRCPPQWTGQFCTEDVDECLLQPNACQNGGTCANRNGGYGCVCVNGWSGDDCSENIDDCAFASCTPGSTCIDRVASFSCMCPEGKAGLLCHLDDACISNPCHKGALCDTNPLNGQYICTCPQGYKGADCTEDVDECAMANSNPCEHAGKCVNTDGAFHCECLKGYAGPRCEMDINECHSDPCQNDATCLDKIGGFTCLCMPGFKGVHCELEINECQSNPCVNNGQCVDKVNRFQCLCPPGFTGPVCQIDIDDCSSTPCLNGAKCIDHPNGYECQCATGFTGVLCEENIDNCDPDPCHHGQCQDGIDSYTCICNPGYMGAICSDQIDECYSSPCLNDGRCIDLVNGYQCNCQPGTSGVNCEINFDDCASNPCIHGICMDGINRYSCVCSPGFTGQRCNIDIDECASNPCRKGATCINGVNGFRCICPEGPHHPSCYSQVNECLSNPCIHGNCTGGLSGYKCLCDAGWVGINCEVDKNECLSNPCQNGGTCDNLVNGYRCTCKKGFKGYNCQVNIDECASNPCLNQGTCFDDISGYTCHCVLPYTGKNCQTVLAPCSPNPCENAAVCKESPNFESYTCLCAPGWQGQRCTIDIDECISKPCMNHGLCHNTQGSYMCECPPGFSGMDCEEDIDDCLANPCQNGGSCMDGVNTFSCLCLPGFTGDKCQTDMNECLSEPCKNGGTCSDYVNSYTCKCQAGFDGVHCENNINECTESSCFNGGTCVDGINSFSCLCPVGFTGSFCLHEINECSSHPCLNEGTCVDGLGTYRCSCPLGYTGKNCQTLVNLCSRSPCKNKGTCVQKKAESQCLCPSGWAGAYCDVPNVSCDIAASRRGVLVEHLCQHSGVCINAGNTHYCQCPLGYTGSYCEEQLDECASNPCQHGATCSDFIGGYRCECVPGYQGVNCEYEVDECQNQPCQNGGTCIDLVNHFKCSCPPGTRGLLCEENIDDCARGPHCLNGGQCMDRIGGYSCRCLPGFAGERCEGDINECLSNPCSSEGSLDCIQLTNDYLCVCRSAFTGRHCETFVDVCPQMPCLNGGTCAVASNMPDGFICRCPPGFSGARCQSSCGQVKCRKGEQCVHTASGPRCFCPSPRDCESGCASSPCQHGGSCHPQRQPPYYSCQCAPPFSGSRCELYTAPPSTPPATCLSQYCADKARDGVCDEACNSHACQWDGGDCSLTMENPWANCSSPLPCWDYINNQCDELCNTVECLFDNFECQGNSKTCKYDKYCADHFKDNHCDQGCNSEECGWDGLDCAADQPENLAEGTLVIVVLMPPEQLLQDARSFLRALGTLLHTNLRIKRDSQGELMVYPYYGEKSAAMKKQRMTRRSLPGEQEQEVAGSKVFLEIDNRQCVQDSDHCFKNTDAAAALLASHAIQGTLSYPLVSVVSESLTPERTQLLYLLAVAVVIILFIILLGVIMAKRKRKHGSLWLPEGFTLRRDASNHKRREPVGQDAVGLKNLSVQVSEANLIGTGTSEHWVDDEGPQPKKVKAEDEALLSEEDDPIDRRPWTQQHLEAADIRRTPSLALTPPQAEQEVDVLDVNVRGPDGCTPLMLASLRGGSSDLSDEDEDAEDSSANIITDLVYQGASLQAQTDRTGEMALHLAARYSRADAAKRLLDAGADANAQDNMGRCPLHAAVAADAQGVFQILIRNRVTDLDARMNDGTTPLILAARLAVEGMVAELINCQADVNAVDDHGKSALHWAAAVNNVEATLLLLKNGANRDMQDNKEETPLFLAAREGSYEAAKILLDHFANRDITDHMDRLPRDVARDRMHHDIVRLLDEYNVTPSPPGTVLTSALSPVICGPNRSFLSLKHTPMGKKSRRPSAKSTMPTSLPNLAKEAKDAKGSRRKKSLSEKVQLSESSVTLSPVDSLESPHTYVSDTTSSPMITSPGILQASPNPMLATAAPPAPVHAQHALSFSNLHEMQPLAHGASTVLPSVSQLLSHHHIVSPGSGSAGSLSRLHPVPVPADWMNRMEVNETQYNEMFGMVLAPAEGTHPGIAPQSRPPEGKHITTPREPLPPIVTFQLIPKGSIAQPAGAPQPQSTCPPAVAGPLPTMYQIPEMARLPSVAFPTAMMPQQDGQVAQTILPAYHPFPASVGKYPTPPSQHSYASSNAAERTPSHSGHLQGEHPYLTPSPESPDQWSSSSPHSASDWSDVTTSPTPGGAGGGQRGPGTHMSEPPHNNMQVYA
# procedure.details: Notch2 binders on small-molecule microarrays, primary screen, biochemical, small-molecule microarray, 635 nm fluorescence, stem cell growth factors (AID 1073)
# measurement.context: Notch2 binding, higher = more signal
reported.metric: composite z-score
Just the number, please, no unit after it.

Consider the reported composite z-score for these molecules:
{"columns": ["molecule.smiles", "composite z-score"],
 "data": [
  ["[N-]=[N+]=NCc1ccccc1C[C@]1(C(=O)O)N=C(c2ccc(OCCCO)cc2)O[C@H]1c1ccccc1", 0.0892],
  ["CC1=C2[C@@H](CCc3ccccc3)OB(O)C[C@@H]2n2c(=O)n(-c3ccccc3)c(=O)n2C1", 0.889],
  ["O=C1O[C@H](c2ccccc2)[C@H](c2ccccc2)N2[C@H]1[C@@H](C(=O)O)[C@]1(C(=O)Nc3ccc(C#CC4(O)CCCCCC4)cc31)[C@H]2c1ccc(OCCO)cc1", 0.263],
  ["C=CC[C@]1(C(=O)N2CCOCC2)N=C(c2ccc(OCCCO)cc2)O[C@H]1c1ccccc1", 0.618],
  ["CC(=O)NCCCC[C@@H]1NC(=O)[C@@H]2C[C@H](C(=O)NCCCCCCNC(=O)CS)[C@H](c3ccc(O)cc3)N2C1=O", -0.498]
]}

Recorded composite z-score for C=CCNC(=O)[C@H]1[C@@H]2C(=O)O[C@@H](c3ccccc3)[C@@H](c3ccccc3)N2[C@@H](c2ccc(O)cc2)[C@]12C(=O)N(C(=O)OCCOC)c1ccc(C#CCCO)cc12 , please?
0.0576

Recorded composite z-score for Cc1ccc(F)cc1S(=O)(=O)N[C@@H]1CCN(Cc2ccc(-c3ccccc3)cc2)C1 , please?
0.332
